target: RPA (UniProt P27694;P15927;P35244 1-616;1-270;1-121); test: EMSA
Sequence (P27694 whole entry, chain 1 of 3): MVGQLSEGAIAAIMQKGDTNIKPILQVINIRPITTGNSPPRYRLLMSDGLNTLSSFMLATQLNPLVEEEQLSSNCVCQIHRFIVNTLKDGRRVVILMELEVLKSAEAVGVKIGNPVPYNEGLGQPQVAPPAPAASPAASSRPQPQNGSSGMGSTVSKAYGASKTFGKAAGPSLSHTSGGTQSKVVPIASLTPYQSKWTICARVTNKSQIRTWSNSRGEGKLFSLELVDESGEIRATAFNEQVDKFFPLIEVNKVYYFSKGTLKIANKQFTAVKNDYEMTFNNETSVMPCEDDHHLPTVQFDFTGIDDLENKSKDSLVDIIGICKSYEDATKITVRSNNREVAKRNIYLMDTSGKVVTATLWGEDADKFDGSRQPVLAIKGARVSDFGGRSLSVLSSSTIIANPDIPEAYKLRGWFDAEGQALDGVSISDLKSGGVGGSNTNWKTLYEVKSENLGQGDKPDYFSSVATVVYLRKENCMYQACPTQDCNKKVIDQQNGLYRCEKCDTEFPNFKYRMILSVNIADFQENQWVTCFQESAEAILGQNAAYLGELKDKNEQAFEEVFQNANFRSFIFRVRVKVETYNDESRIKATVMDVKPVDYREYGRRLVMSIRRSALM
Sequence (P15927 whole entry, chain 2 of 3): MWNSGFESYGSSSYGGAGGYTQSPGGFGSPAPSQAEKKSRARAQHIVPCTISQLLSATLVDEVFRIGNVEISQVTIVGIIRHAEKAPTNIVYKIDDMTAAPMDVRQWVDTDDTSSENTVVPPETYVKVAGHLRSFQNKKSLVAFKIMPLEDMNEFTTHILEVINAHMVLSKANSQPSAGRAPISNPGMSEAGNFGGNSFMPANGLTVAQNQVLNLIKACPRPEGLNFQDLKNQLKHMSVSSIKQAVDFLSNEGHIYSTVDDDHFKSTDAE
Sequence (P35244 whole entry, chain 3 of 3): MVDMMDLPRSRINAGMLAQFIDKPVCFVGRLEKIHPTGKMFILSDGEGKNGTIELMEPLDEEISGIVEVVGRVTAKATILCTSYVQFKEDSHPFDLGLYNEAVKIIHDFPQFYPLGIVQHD
property.name: pKd
In plain terms, pKd is the concentration in mol/L turned into minus its base-10 logarithm.

## Input What does the record list as pKd for GGGTTAGGGTTAGGGTTAGGG (ssDNA) [Tel21] ?
## Output 8.72
